Data origin, for the record: PubChem BioAssay

In this section we review reported growth inhibition values for a set of compounds.
test: Restrictive medium S. cerevisiae growth inhibition, OD615, pilot screen of yeast lifespan reduction project, restrictive growth control (AID 706); details: OD615, 48 h, at 10 µM, stronger effect = higher value;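 further: modified DeaD lifespan yeast strain shifted to restrictive glucose medium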
Write the answer as a number in %, unit excluded.

- COMPOUND: "CCC(C)Sc1nnc(Cc2cc(=O)[nH]c(=O)[nH]2)n1-c1ccc(OC)cc1 (stereo not drawn)"
  RECORDED NUMBER: -6.83
- COMPOUND: "COc1ccc2c(c1)NC1(O)c3ccccc3C(=O)C21O (stereo not drawn)"
  RECORDED NUMBER: 4.5

Now consider a different compound.
Enquiry: State its growth inhibition: `CCOc1ccc(-c2nc(C#N)c(N3CCN(Cc4ccccc4)CC3)o2)cc1`
Return: 8.5
